target: human P2X3 receptor (Homo sapiens (Human)); assay: Evaluation of human P2X3 receptor inhibitory activity (Fluo-3 calcium fluorescence, FDSS 3000, ATP stimulation); format: cell-based; conditions: human P2X3 receptor, Test Example 1
Sequence (P56373 whole entry): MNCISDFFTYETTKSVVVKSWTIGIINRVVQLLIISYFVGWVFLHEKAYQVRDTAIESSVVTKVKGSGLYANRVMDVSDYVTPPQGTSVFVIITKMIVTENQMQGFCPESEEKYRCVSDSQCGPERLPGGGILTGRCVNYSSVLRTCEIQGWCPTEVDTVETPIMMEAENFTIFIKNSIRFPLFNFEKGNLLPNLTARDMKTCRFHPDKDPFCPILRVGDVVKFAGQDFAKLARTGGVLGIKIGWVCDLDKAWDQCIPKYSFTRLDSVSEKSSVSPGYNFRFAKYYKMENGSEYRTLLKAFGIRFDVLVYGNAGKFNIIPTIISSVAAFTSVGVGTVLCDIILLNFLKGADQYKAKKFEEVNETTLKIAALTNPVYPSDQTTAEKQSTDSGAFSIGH
Cut-off 20 nM on IC50: below means yes (1), at or above means no (0).

| STRUCTURE_NOTATION | CATEGORY_LABEL |
| --- | --- |
| Cc1ccc(Cn2c(=O)n(C[C@H](C)C(=O)O)c(=O)[nH]/c2=N\c2ccc(OCC(C)C)c(C)c2)cc1 | no (0) |
| Cc1cnc(Oc2ccc(/N=c3\[nH]c(=O)n(CCO)c(=O)n3Cc3ccc(Cl)cc3)cc2)s1 | yes (1) |
| CNC(=O)[C@@H](CCO)n1c(=O)[nH]/c(=N\c2ccc(OC(C)C)c(C)c2)n(Cc2ccc(Cl)cc2)c1=O | no (0) |
| CCOc1ccc(/N=c2\[nH]c(=O)n([C@H](C)CC(=O)OC)c(=O)n2Cc2ccc(C)cc2)cc1Cl | no (0) |
| Cc1cc(Oc2ccc(/N=c3\[nH]c(=O)n(C[C@@H](O)CO)c(=O)n3Cc3ccc(Cl)cc3)cc2)no1 | no (0) |
| Cc1nc2ccc(/N=c3\[nH]c(=O)n(CC4(C(=O)O)CC4)c(=O)n3Cc3ccc(Cl)cc3)cc2s1 | yes (1) |
| Cn1c(=O)[nH]/c(=N\c2ccc(Oc3ccnc(C(=O)O)c3)c(F)c2)n(Cc2ccc(Cl)cc2)c1=O | yes (1) |
| COC(=O)[C@@H](C)Cn1c(=O)[nH]/c(=N\c2ccc(OCC(C)C)c(C)c2)n(Cc2ccc(C)cc2)c1=O | no (0) |

---

target: human P2X3 receptor (Homo sapiens (Human)); assay: Evaluation of human P2X3 receptor inhibitory activity (Fluo-3 calcium fluorescence, FDSS 3000, ATP stimulation); assay type: cell-based; details: C6BU-1 cells stably expressing human P2X3 receptor;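 also: stimulus was 50 nM ATP with fluorescence followed for 3 min, and the response per well was peak post-ATP fluorescence divided by the reading at measurement start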
ASSAY_METRIC: IC50 (nM)

| COMPOUND | MEAS_VALUE |
| --- | --- |
| CNC(=O)CCCn1c(=O)[nH]/c(=N\c2ccc(OC(C)C)c(C)c2)n(Cc2ccc(Cl)cc2)c1=O [Compound I-0786] | 15 |
| CCn1c(=O)[nH]/c(=N\c2ccc3oc(C)c(CCO)c3c2)n(Cc2ccc(Cl)cc2)c1=O [Compound I-2171] | 296 |
| O=c1[nH]/c(=N\c2ccc3nc(C4CC4)sc3c2)n(Cc2ccc(Cl)cc2)c(=O)n1CCOC1CCCCO1 (stereo not shown) [Compound I-2024] | 5 |
| CCn1c(=O)[nH]/c(=N\c2ccc(Oc3cccc(C(=O)OC)c3)cc2)n(Cc2ccc(C)cc2)c1=O [Compound I-2028] | 13 |
| O=C(O)CCn1c(=O)[nH]/c(=N\c2ccc(OC3CCC3)c(Cl)c2)n(Cc2ccc(Cl)cc2)c1=O [Compound I-1333] | 52 |
| CCn1c(=O)[nH]/c(=N\c2ccc(Oc3cc(C(N)=O)ccn3)cc2)n(Cc2ccc(Cl)cc2)c1=O [Compound I-2165] | 979 |
| Cc1ccc(Cn2c(=O)n(C[C@H](C)C(=O)O)c(=O)[nH]/c2=N\c2ccc(CC(C)C)nc2)cc1 [Compound I-1359] | 724 |
| CCn1c(=O)[nH]/c(=N\c2ccc(Oc3ccc(CO)nc3)cc2)n(Cc2ccc(Cl)cc2)c1=O [Compound I-2114] | 7 |
| C=Cc1cc(/N=c2\[nH]c(=O)n(CCC(=O)OCC)c(=O)n2Cc2ccc(C)cc2)ccc1OC(C)C [Compound I-1190] | 5 |
| CO/N=C(\Cn1c(=O)[nH]/c(=N\c2ccc(OC(C)C)c(C)c2)n(Cc2ccc(Cl)cc2)c1=O)C(=O)O [Compound I-0756] | 131 |
| Cc1ccc(Cn2c(=O)[nH]c(=O)[nH]/c2=N\c2ccc(Oc3ccnc(C(=O)O)c3)cc2)cc1 [Compound I-2140] | 7 |
| COC(=O)[C@@H](C)Cn1c(=O)[nH]/c(=N\c2ccc(CC(C)C)c(OC)c2)n(Cc2ccc(Cl)cc2)c1=O [Compound I-1247] | 28 |
| CNC(=O)Cn1c(=O)[nH]/c(=N\c2ccc(OC3CCC3)cc2)n(Cc2ccc(Cl)cc2)c1=O [Compound I-1948] | 22 |
| NC(=O)Cn1c(=O)[nH]/c(=N\c2ccc(Oc3ccnc(O)c3)cc2)n(Cc2ccc(Cl)cc2)c1=O [Compound I-1977] | 5 |
| Cc1ccc(Cn2c(=O)n(C[C@H](C)C(=O)O)c(=O)[nH]/c2=N\c2ccc(Cc3ccncc3)cc2)cc1 [Compound I-1262] | 163 |
| CCn1c(=O)[nH]/c(=N\c2ccc(Oc3cncc(C(=O)O)c3)cc2)n(Cc2ccc(F)cc2)c1=O [Compound I-2112] | 47 |
| CCn1c(=O)[nH]/c(=N\c2ccc(Oc3cncc(C(N)=O)c3)cc2)n(Cc2ccc(Cl)cc2)c1=O [Compound I-1996] | 4 |
| CC(C)Oc1ccc(/N=c2\[nH]c(OCC(N)=O)nc(=O)n2Cc2ccc(Cl)cc2)cc1F [Compound I-0587] | 299 |
| COc1cc(Cn2c(=O)[nH]/c(=N\c3ccc(OC(C)C)c(F)c3)n(Cc3ccc(Cl)cc3)c2=O)ccn1 [Compound I-0642] | 5 |
| NC(=O)CCn1c(=O)[nH]/c(=N\c2ccc(OCC3CC3)cc2)n(Cc2ccc(Cl)cc2)c1=O [Compound I-1914] | 46 |
| CNC(=O)CCn1c(=O)[nH]/c(=N\c2ccc3[nH]c(C)c(C)c3c2)n(Cc2ccc(Cl)cc2)c1=O [Compound I-1967] | 8 |
| Cc1ccc2cc(/N=c3\[nH]c(=O)n([C@@H](C)[C@@H](C)C(=O)O)c(=O)n3Cc3ccc(Cl)cc3)ccc2n1 [Compound I-1350] | 28 |
